Hey, just so you know, these numbers are from the supplement of paper PMC9170038.

# Test system: MS2 coat protein
# test-details: apparent KD of MS2 coat protein; designed switch direction (-1 OFF switch, 1 ON switch): -1; higher = weaker reporter binding
# experimental-context: input ligand: microRNA oligo, concentration not stated
// reported apparent KD of MS2 coat protein per item
Lab book: enter the figure in nM, no units written.

UUAGUAUUGCAAGGAUAUGUUUAUGUUUAUUUUCCUCUUACAUGAGGAUCACCCAUGUUUAACUUACAGAAGGUGCUAUGAUUU [JR_ExcNG2_Sub032] (Eterna round: R96, puzzle: Exclusion NG 2) : 477
CCAGCGAGUGUGAGGAUAUGCUGGUCCUUGGAUCAGCAGAAGGCACAUGAGGAUCACCCAUGUGAGGACGUUGG [JL bmx4 3.31] (Eterna round: R96, puzzle: Brourd's mod of Exclusion 4) : 27.9
UAUAUAUAGUAAGGAUAUGUAUAUGUUUUAUAAACAGAAGGUACUGACAUGAGGAUCACCCAUGUUUUAGUGUGGGCAUGUAGA [JMF's solution 54] (Eterna round: R96, puzzle: Exclusion NG 1) : 44.5
AAACAACGGACAGGAUAUCCGAAAAUAAAGCUAGGAGAAGGGUCGAAAACAUGAGGAUCACCCAUGUGCGUGGCGGGUUCUUAG [Zaerqu] (Eterna round: R96, puzzle: Exclusion NG 1) : 13.4
AACCUGAGGCUUUGCUUUAGGUGUACAUGAGGAUCACCCAUGUAGGAUAUGGUAGGCUUUGCUUACCAGAAGGACAUUGGCGUU [JL ENG3 1.14] (Eterna round: R96, puzzle: Exclusion NG 3) : 66.2
GAUAGAGAGCAGGAUAUCUUAGAAAUGUAUUAUAGAGAAGGGCUCACAUGAGGAUCACCCAUGUGGUCCUAGAU [JL Dibiri mod 15] (Eterna round: R96, puzzle: Exclusion 6) : 14.4

Param readout= apparent KD of MS2 coat protein; system= MS2 coat protein; entry= GAAAAACAUGAGGAUCACCCAUGUAAGGAUAUGCUGAAAAAACACUGGAAACAGUGCAGCAGAAGGUACAAAAG [Mat - Exclusion 1 - Eli mod - D100] (Eterna round: R96, puzzle: Exclusion 1) ; returns value.
47.6

Query the reported apparent KD of MS2 coat protein for MS2 coat protein; item: UUCUUUACACGAGGAUAUCAUACAUGAGGAUCACCCAUGUUGCUUUGUCUGUUUUUAUGUAUUAUUGAGAAGGCGUUUUUCUUU [JR_ExcNG2_Sub076] (Eterna round: R96, puzzle: Exclusion NG 2)
19.7

Provide value of apparent KD of MS2 coat protein for this record tested with MS2 coat protein: GCAGCAAAUUCCAUUAAAACCACAUGAGGAUCACCCAUGUCUCAGGAUAUGGUCUGGAUUACAGGCCAGAAGGGAGAAAGCUGC [Eli exng3 - 055] (Eterna round: R96, puzzle: Exclusion NG 3)
11.9
